target: BACE1 (Homo sapiens); construct: purchased RD System, Inc. (WI, USA); experiment: BACE1 FRET peptide cleavage assay; format: biochemical; conditions: BACE1 activity; mean of three experiments ± SD
Sequence (P56817 46-501): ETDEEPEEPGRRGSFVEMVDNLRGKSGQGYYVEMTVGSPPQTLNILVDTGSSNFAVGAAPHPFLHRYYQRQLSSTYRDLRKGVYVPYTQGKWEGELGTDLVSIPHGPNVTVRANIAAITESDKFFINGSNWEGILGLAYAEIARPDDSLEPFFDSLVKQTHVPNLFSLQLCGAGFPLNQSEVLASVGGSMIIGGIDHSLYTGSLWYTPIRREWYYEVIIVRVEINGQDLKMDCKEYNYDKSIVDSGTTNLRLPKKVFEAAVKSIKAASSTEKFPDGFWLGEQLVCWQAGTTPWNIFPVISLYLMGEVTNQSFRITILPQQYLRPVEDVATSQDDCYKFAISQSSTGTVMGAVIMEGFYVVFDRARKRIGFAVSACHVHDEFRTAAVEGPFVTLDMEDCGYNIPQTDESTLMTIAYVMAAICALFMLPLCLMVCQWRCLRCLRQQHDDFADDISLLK
PARAMETER_MEASURED: IC50 (µM)
Respond numerically; units are µM and should not be typed.

{"COMPOUND": "O=C(/C=C/c1ccc(O)c(O)c1)c1ccc(NS(=O)(=O)c2ccc(O)cc2)cc1 [Compound 5c]", "IC50 / µM": 0.62}
{"COMPOUND": "Cc1ccc(S(=O)(=O)Nc2ccc(C(=O)/C=C/c3ccc(O)cc3)cc2)cc1 [Compound 4a]", "IC50 / µM": 1.44}

Query: Returns the measured IC50 for the input compound. Input: O=C(/C=C/c1ccc(O)cc1)c1ccc(NS(=O)(=O)c2ccc(F)cc2)cc1 [Compound 4h]
Response: 120

Query: Fill in: IC50 of COc1ccc(S(=O)(=O)Nc2ccc(C(=O)/C=C/c3ccc(O)cc3)cc2)cc1 [Compound 4e] is ___
Response: 79.3

Query: Any idea what IC50 was measured for O=C(/C=C/c1ccc(O)cc1)c1ccc(NS(=O)(=O)c2ccc(O)cc2)cc1 [Compound 4d] ?
Response: 2.88

Query: Please look up its IC50: Cc1ccc(S(=O)(=O)Nc2ccc(C(=O)/C=C/c3ccc(O)cc3O)cc2)cc1 [Compound 6]
Response: 3.6

Query: What value of IC50 has been reported for the following compound? Nc1ccc(S(=O)(=O)Nc2ccc(C(=O)/C=C/c3ccc(O)cc3)cc2)cc1 [Compound 4f]
Response: 5.58
